test-target: human GAL3 receptor (Homo sapiens, UniProt O60755)
Construct: expressed in transfected cells
Sequence (O60755 whole entry): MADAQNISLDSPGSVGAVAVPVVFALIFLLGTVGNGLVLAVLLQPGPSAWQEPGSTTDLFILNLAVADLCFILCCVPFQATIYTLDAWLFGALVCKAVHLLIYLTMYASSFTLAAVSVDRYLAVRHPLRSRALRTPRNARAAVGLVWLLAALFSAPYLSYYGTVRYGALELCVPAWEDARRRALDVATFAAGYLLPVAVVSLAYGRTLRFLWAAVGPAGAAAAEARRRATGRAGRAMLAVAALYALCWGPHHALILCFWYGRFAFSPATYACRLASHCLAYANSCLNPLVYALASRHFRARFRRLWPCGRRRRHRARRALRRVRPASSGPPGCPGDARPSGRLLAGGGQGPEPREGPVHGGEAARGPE
experiment-summary: Radioligand binding at cloned human GAL3 receptor
condition-context: pyrimidines, cloned human receptor; read-out: Ki GalR3
experimental-readout: log10(Ki) (log10 of the value in nM)
Short version: log10 scale, Ki, nM.

Some solved cases for reference:
# compound, test-target, log10(Ki)
rows = [
    ("CN(C)c1cc(Nc2cccc(OCc3ccccc3)c2)nc(N2CCN(c3cnccn3)CC2)n1", "human GAL3 receptor (Homo sapiens, UniProt O60755)", 1.18),
    ("CN(C)c1cc(Nc2ccc(Cc3ccccc3)cc2)nc(N2CCN(c3ccccn3)CC2)n1", "human GAL3 receptor (Homo sapiens, UniProt O60755)", 1.43),
    ("CN(C)c1cc(Nc2ccc(Br)cc2F)nc(N2CCN(c3ccccn3)CC2)n1", "human GAL3 receptor (Homo sapiens, UniProt O60755)", 2.30),
    ("Cc1ccc(Nc2cc(N3CCCCC3)nc(NC(C)Cc3c[nH]c4ccccc34)n2)cc1 (stereo not drawn)", "human GAL3 receptor (Homo sapiens, UniProt O60755)", 2.21),
    ("CN(C)c1cc(Nc2ccc(Cl)c(Cl)c2)nc(N2CCN(Cc3ccccc3)CC2)n1", "human GAL3 receptor (Homo sapiens, UniProt O60755)", 1.04),
]

Using known records, supply log10(Ki) for Cc1ccc(Nc2cc(N3CCCCC3)nc(N3CCc4ccccc4C3)n2)cc1
2.18

Using known records, supply log10(Ki) for CN(C)c1cc(Nc2ccc(Br)cc2)nc(Nc2ccccc2)n1
2.75

Using known records, supply log10(Ki) for Cc1ccc(Nc2cc(N(C)C)nc(N3CCN(Cc4ccccc4)CC3)n2)cc1Cl
1.30

Using known records, supply log10(Ki) for Cc1ccc(Nc2cc(N(C)C)nc(NCCNc3ccccc3)n2)cc1
2.78

Using known records, supply log10(Ki) for CN(C)c1cc(Nc2ccccc2)nc(Nc2ccccc2)n1
2.84

====

test-target: dopamine D5 receptor (Homo sapiens, UniProt P21918)
Construct: expressed in transfected cells
Sequence (P21918 whole entry): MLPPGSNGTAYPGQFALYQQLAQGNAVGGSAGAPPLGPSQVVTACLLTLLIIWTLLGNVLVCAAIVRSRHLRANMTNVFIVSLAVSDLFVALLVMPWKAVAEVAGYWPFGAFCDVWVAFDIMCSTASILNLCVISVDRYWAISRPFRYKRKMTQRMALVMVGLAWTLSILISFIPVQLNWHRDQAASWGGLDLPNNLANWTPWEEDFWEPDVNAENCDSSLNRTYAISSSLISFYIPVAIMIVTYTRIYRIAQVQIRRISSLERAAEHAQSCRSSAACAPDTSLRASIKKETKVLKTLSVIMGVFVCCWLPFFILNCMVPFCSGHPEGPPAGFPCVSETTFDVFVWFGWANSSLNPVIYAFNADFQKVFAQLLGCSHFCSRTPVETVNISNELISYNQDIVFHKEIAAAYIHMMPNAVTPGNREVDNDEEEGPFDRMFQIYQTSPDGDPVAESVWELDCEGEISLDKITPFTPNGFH
experiment-summary: Radioligand binding, dopamine D5 receptor
condition-context: read-out: hD5 Ki; Table 9
experimental-readout: pKi
The value called pKi is obtained by taking minus log10 of the concentration in mol/L.

Using known records, supply pKi for COC[C@@H]1[C@@H](c2ccccc2)OCCN1c1nc(Nc2ccc(C)cc2)cc(N2CCCCC2)n1
6.48

====

Test system: Male Sprague-Dawley rats
experiment-summary: Rat Forced Swim Test (FST)
Assay type: in vivo
condition-context: 10 mg/kg p.o., single administration, 1 hr. before test
# key: entry, value: Swimming
Lab note: jot down the number only; don't add units.

Some solved cases for reference:
# smiles-code, observed
data = [
    ("Cc1ccc(Nc2cc(N3CCCCC3)nc(N3CCN(c4ncccc4C(F)(F)F)CC3)n2)cc1", 8.2),
    ("COC[C@@H]1[C@@H](c2ccccc2)OCCN1c1nc(Nc2ccc(C)cc2)cc(N2CCCCC2)n1", 10.0),
]

Shift focus to the following entry.
Using known records, supply Swimming for O=C1C(=Nc2cc(Cl)cc(Cl)c2)c2ccccc2N1c1ccccc1
14.3

====

test-target: human GAL3 receptor (Homo sapiens, UniProt O60755)
Construct: expressed in transfected cells
experiment-summary: Radioligand binding at cloned human GAL3 receptor
condition-context: pyrimidines, cloned human receptor; read-out: Ki GalR3
So basically, if Ki comes in under 200 nM it's Yes, and if it's 200 nM or more it's No.

# compound, test-target, label-value
measured = [
    ("Cc1ccc(Nc2cc(N3CCCCC3)nc(N(C)CCc3ccccc3)n2)cc1", "human GAL3 receptor (Homo sapiens, UniProt O60755)", "Yes"),
]

# strict comparison: is reported Ki < 200 nM? input = Cc1ccc(Nc2cc(N(C)C)nc(N3CCC(c4ccccc4)CC3)n2)cc1
Yes

# strict comparison: is reported Ki < 200 nM? input = CCc1ccccc1N1CCN(c2nc(Nc3ccc(C)cc3)cc(N3CCCCC3)n2)CC1
Yes

# strict comparison: is reported Ki < 200 nM? input = Cc1ccc(Nc2cc(N(C)C)nc(N3CCN(c4ccccn4)CC3)n2)cc1Br
Yes

# strict comparison: is reported Ki < 200 nM? input = CN(C)c1cc(Nc2ccc(C#N)c(Cl)c2)nc(N2CCN(Cc3ccccc3)CC2)n1
No

====

test-target: human GAL2 receptor (Homo sapiens)
Construct: expressed in transfected cells
Sequence (O43603 1-387): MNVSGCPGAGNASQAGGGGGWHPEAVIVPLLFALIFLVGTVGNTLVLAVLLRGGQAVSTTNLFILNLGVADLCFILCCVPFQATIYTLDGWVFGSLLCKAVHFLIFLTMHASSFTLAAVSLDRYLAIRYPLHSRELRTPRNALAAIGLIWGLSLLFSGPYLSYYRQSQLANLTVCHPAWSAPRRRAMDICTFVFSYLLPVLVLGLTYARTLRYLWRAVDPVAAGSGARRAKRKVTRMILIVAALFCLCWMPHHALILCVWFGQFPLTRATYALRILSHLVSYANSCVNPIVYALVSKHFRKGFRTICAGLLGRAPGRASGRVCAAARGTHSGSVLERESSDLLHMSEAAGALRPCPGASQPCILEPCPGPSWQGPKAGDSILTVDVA
experiment-summary: Radioligand binding at cloned human GAL2 receptor
condition-context: pyrimidines, read-out: Ki GalR2
experimental-readout: Ki

Some solved cases for reference:
# molecule, Ki
data = [
    ("Cc1ccc(Nc2cc(N3CCCCC3)nc(N3CCOCC3c3ccccc3)n2)cc1 (centres unmarked)", "> 5000 nM"),
    ("Cc1ccc(Nc2cc(N3CCCCC3)nc(N(C)C(C)Cc3c[nH]c4ccccc34)n2)cc1 (centres unmarked)", "1100 nM"),
    ("Cc1ccc(Nc2cc(N3CCCCC3)nc(N(C)c3ccc(C)cc3)n2)cc1", "775 nM"),
    ("Cc1ccc(Nc2cc(N3CCCCC3)nc(N3CCOC(c4ccccc4)C3)n2)cc1 (centres unmarked)", "3010 nM"),
    ("COCCN(c1nc(Nc2ccc(C)cc2)cc(N(C)C)n1)C1CCCCC1", "468 nM"),
    ("Cc1ccc(Nc2cc(N3CCCCC3)nc(N3CCN(c4c(C)cccc4C)CC3)n2)cc1", "272 nM"),
]

Using known records, supply Ki for Cc1ccc(Nc2cc(N(C)C)nc(N(C)C3CCCCC3)n2)cc1
1550 nM

Using known records, supply Ki for Cc1ccc(Nc2cc(N(C)C)nc(N3CCOCC3c3ccccc3)n2)cc1 (centres unmarked)
> 5000 nM

====

test-target: human 5HT4 receptor (Homo sapiens, UniProt Q13639)
Construct: expressed in transfected cells
Sequence (Q13639 whole entry): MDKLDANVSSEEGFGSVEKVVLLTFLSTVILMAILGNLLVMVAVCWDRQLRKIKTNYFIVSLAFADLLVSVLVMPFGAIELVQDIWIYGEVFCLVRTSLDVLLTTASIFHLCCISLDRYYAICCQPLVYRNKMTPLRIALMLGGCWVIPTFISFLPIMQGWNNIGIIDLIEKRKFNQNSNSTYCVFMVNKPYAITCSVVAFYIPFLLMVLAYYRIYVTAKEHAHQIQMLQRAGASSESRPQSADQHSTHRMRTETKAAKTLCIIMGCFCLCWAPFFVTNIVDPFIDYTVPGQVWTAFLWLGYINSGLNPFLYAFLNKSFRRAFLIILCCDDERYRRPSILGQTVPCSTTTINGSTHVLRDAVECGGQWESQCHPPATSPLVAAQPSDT
experiment-summary: Radioligand binding, 5-HT4 receptor
condition-context: Table 7; read-out: h5HT4 Ki
experimental-readout: pKi
The value called pKi is obtained by taking minus log10 of the concentration in mol/L.

# smiles-code, pKi
data = [
    ("O=C1C(=Nc2ccc(C(F)(F)F)cc2)c2ccccc2N1c1ccccc1", 5.52),
    ("CN(CCc1c[nH]c2ccccc12)c1nc(Nc2ccc(F)c(F)c2)cc(N2CCCCC2)n1", 5.64),
    ("Cc1ccc(Nc2cc(N3CCCCC3)nc(N(C)CCc3ccccc3)n2)cc1", 5.61),
    ("Cc1ccc(Nc2cc(N(C)C)nc(N(C)CCc3c[nH]c4ccccc34)n2)cc1", 5.88),
    ("COc1cccc(Nc2cc(N3CCCCC3)nc(N(C)CCc3c[nH]c4ccccc34)n2)c1", 5.58),
]

Using known records, supply pKi for CN(C)c1cc(Nc2ccc(Cl)c(Cl)c2)nc(Nc2ccccc2)n1
5.93

====

test-target: human GAL3 receptor (Homo sapiens, UniProt O60755)
Construct: expressed in transfected cells
experiment-summary: Radioligand binding at cloned human GAL3 receptor
condition-context: read-out: hGAL3 Ki; Table 9
experimental-readout: pKi
The value called pKi is obtained by taking minus log10 of the concentration in mol/L.

Using known records, supply pKi for COC[C@@H]1[C@@H](c2ccccc2)OCCN1c1nc(Nc2ccc(C)cc2)cc(N2CCCCC2)n1 [Example 49]
6.68

====

test-target: human 5HT1A receptor (Homo sapiens)
Construct: expressed in transfected cells; host or cells: COS-7 cells, transient (pCEXV-3 vector)
Sequence (P08908 1-422): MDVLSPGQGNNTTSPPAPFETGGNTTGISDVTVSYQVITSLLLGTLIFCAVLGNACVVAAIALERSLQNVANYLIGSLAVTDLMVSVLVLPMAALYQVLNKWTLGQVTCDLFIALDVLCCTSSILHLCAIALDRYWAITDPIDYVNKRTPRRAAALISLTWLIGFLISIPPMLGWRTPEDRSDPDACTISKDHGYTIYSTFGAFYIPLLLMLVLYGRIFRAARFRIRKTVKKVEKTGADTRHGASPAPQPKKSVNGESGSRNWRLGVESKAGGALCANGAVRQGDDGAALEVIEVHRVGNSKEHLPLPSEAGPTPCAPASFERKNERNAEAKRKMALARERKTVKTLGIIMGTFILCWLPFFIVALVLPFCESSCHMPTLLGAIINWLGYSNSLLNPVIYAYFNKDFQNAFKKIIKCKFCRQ
experiment-summary: Radioligand binding, 5-HT1A receptor (3H-8-OH-DPAT)
condition-context: Table 7; read-out: h5HT1A Ki
So basically, if Ki comes in under 10 µM it's true (1), and if it's 10 µM or more it's false (0).

Take a look at these entries with their results.
# compound, label-value
data = [
    ("Cc1ccc(Nc2cc(N3CCCCC3)nc(N(C)CCc3c[nH]c4ccccc34)n2)cc1 [Example 11]", "true (1)"),
    ("CN(CCc1c[nH]c2ccccc12)c1nc(Nc2ccc(F)c(F)c2)cc(N2CCCCC2)n1 [Example 15]", "true (1)"),
    ("O=C1C(=Nc2cccc(Cl)c2)c2ccccc2N1c1ccccc1 [Example 94]", "false (0)"),
]

Here is another compound to look at.
# strict comparison: is reported Ki < 10 µM? input = O=C1C(=Nc2ccc(C(F)(F)F)cc2)c2ccccc2N1c1ccccc1 [Example 95]
false (0)

Numbers sourced from patent EP2140864A2.
